assay: label from the status in PepcDB records
MEASUREMENT_KIND: protein production

Below, 5 sequences whose answers are already recorded.
MTQQDFRTKVDNTVFGVRATALIVQNHKLLVTKDKGKYYTIGGAIQVNESTEDAVVREVKEELGVKAQAGQLAFVVENRFEVDGVSYHNIEFHYLVDLLEDAPLTMQEDEKRQPCEWIDLDKLQNIQLVPVFLKTALPDWEGQLRHIHLEE not failed
MRLAGVGKSCLFAGRCAGIRPRRRLRWVLHFTATVPLNSMSSRRAFLRQCGLALAAAPALSSLPPWLSSADGFTSLRGGIGTFTQRGGTIGWLATDDGIAVVDTQSPQSAPDCWNGLRERSDSPLAMVINTHHHGDHVGGNGVFARHTDRLVAHANVPELMRAGAEDGAADEKTYPTETFQDTWSEPLGDETITLRYRGPAHTGGDAIVVFENANIVHVGDLVFNRAYPFIDVGGGADSQGWIDSLETIHGALDDDTIVIHGHGNPDFGVTGGREDLLVMRDFLSALNEYVTQQRQAGASLDEMKQTKVLDGFEAFNFDWALSLADCIEAVYREQTAG failed
ADLGRKITSALRSLSNATIINEEVLNAMLKEVCTALLEADVNIKLVKQLRENVKSAIDLEEMASGLNKRKMIQHAVFKELVKVKVY not failed
MMRPLCFFLLIFLLSGNPVMAAELRPFICVNEKDHLPSLDPQADAWYREAVALAKPDTLRPWDRIVDLYSKAVERGHWKAMHNLASLYRTGWPGGVEKDTQKALDLYQKMIDLKVPQGFYDMAAMIGNRAGVKNPATDGLTFLDKAASLGNPPALTELGRLYIYVAGQDELGLKYTNCAAGQGYAPANYELAMYYRLVAHNYPKAAGYYLLAASQGNDDAAFFMSGVFDKTSPDVDRMWYAPDEKLHKLYDGIYDQLAADPDLRFPNLIKDHPLPPHPTQGYDADRPDWKPGQ failed
MDALIMAGGKGTRLKENVEKPILNICEKPMIDYVIDSLLNSKIEKIYVAVSIHTPKTKEYLEKKYRLDRNYNPKIDIICTSGTNYVDDLNECMEFFKEPFLILSSDIPTIKPKVINSIIQDYLFVNNSCNRIESFCVVTKDDDYVGTPSINMGGYIPLGINILTPKHGEQTEILHVIKDIIVNVNTLSDKKLVETLINKVVELEHHHHHH not failed

Now consider the entry below.
Consider MFDQYRKTILAGAVALTCGLTAASTFAAGFQPAQPAGKLGAVVVDPYGNAPLTALVELDSHIISDVKVTVHGKGEKGVPVTYTVGKESLETYDGIPIFGLYQKFANNVTVEYKENGKAMKDDYVVQTSAIVNHYMDNRSISDLQQTKVIKVAPGFEDRLYLVNTHTFTPQGAEFHWHGEKDKNAGILDAGPAGGALPFDIAPYTFVVDTQGEYRWWLDQDTFYDGHDMNINKRGYLMGIRETPRGTFTAVQGQHWYEFDMMGQILADHKLPRGFLDASHESIETVNGTVLLRVGKRVTAKKTAYMFILFVTKSLRSISLAALEHHHHHH . Its measured protein production is failed
